Test system: T1, O4-bP
T1 chain: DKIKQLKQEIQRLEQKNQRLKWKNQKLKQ
Method summary: two-hybrid library CCNG1;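 also: natural log of median RNA to DNA barcode read ratio; higher means stronger binding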
Metric name: interaction score
Answers are plain numbers.

Study these solved cases before continuing.
Binder	Reported result
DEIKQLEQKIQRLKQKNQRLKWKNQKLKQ [O12-bP]	0.355
DEIKQLEQKIQRLKQENQRLEWENQKLEQ [O3-bP]	1.15
DEIKQLEQENQRLEQKIQRLKWENQKLEQ [O15-bP]	-1.2
DKIKQLKQKNQRLKQEIQRLEWKNQKLKQ [O16-bP]	-1.21
DKNKQLKQKIQRLKQKNQRLKWEIQKLEQ [O13-bP]	-0.851

// for each binder in input: emit interaction score
1. DENKQLEQEIQRLEQENQRLEWKIQKLKQ [O14-bP]
2. DKIKQLKQEIQRLEQKNQRLKWKNQKLKQ [O4-bP]

[-1.04, -0.959]

Hello, the source for this data is paper PMC10397247, in case you need it.
